Tested on: Staphylococcus aureus
Test: Antibacterial activity against Staphylococcus aureus ATCC 6538 after 24 hrs by microdilution assay
Format: functional
Conditions: ATCC 6538, 24 h
# note: boundary value 30 µM maps to No; MIC95 below it maps to Yes

Query: Could you please tell me whether MIC95 recorded for Cc1ccc(C2=C(c3ccc(Br)cc3)C(=O)OC2CO)cc1 (stereo not drawn) is less than 30 µM?
Result: Yes

Query: Please let me know if Cc1ccc(C2=C(c3ccc(Br)cc3)C(=O)OC2(CO)CO)cc1 shows MIC95 below 30 µM.
Result: Yes

Query: Just wondering, is MIC95 of Cc1ccc(C2=C(c3ccc(Br)cc3)C(=O)OC2)cc1 below 30 µM?
Result: Yes

Query: Item O=C1OCC(c2ccc(C(F)(F)F)cc2)=C1c1ccc(Br)cc1 : MIC95 beneath 30 µM, strictly?
Result: No

Query: For COc1ccc(C2=C(c3ccc(Br)cc3)C(=O)OC2)cc1 , is the recorded MIC95 below the cut-off of 30 µM?
Result: No

More entries:
Query: Quick check: MIC95 of Cc1ccc(C2=C(c3cccc(C(F)(F)F)c3)C(=O)OC2)cc1 under 30 µM?
Result: No

Query: Just wondering, is MIC95 of O=C1OCC(c2ccccc2)=C1c1ccc(Br)cc1 below 30 µM?
Result: Yes

Query: hey, is MIC95 for O=C1OCC(c2ccc3c(c2)OCO3)=C1c1ccc2c(c1)OCO2 lower than 30 µM or not?
Result: No

###

Tested on: Klebsiella pneumoniae
Assay: Antibacterial activity against Klebsiella pneumoniae HK14368/08 clinical isolate after 48 hrs by microdilution assay
Assay type: functional
Conditions: HK14368/08, 48 h
Here, each record is paired with measured MIC95 data.

Previously resolved entries follow.
Query: GET /values?readout=MIC95&item= COc1ccc(C2=C(c3ccc(OC)c(OC)c3)C(CO)OC2=O)cc1 (stereo not drawn)
Result: > 125 µM

Query: What does the record list as MIC95 for Cc1ccc(C2=C(c3ccc(Br)cc3)C(=O)OC2(CO)CO)cc1 ?
Result: > 500 µM

New cases:
Query: // query MIC95 value for entry O=C1OCC(c2ccc(C(F)(F)F)cc2)=C1c1c[nH]c2ccccc12
Result: > 125 µM

###

Test system: Klebsiella pneumoniae
Assay: Antibacterial activity against Klebsiella pneumoniae HK14368/08 clinical isolate after 24 hrs by microdilution assay
Type: functional
Conditions: HK14368/08, 24 h
Value type: MIC95

Worked cases, MIC95 given:
Query: Need MIC95, item O=C1OCC(c2ccc(C(F)(F)F)cc2)=C1c1ccc(Br)cc1
Result: > 500 µM

Query: Which MIC95 is listed for Cc1ccc(C2=C(c3ccc(Br)cc3)C(=O)OC2(CO)CO)cc1 ?
Result: > 500 µM

Query: Requested field: MIC95. Item: COc1ccc(C2=C(c3cccc(Cl)c3Cl)C(=O)OC2(CO)CO)cc1
Result: > 500 µM

Query: # input compound: COc1ccc(C2=C(c3c(Cl)cccc3Cl)C(=O)OC2)cc1 ; wanted: its MIC95
Result: > 500 µM

Query: Give its MIC95 value. Item: O=C1OCC(c2ccc(C(F)(F)F)cc2)=C1c1ccncc1
Result: > 500 µM

Others:
Query: Entry O=C1OCC(c2ccccc2)=C1c1ccc(Br)cc1 has what MIC95?
Result: > 1000 µM

Query: Which MIC95 is reported for this compound? COc1cc(OC)c(C2=C(c3ccc(OC)c(OC)c3OC)COC2=O)c(OC)c1
Result: > 500 µM

Query: So what's the measured MIC95 for this one? O=C1OCC(c2ccc3c(c2)OCO3)=C1c1ccc2c(c1)OCO2
Result: > 125 µM

Query: Which measured MIC95 value corresponds to CC(=O)OCC1(COC(C)=O)OC(=O)C(c2ccc(Br)cc2)=C1c1ccc(C)cc1 ?
Result: > 125 µM

Query: Which value of MIC95 has been reported for Cc1ccc(C2=C(c3ccc(F)cc3)C(=O)OC2)cc1 in the records?
Result: > 500 µM

Query: # get_value(readout='MIC95', item= O=C1OCC(c2ccc(C(F)(F)F)cc2)=C1c1c[nH]c2ccccc12 )
Result: > 125 µM

###

Form field: MIC95 (one value per entry).
System: Klebsiella pneumoniae
Test: Antibacterial activity against Klebsiella pneumoniae HK14368/08 clinical isolate after 24 hrs by microdilution assay
Type: functional
Settings: HK14368/08, 24 h

Reference set, count: 2
Query: Entry O=C1OCC(c2ccccc2)=C1c1cccc(C(F)(F)F)c1 has what MIC95?
Result: > 500 µM

Query: For the molecule O=C1OCC(c2ccccc2)=C1c1ccc(F)cc1 , what MIC95 is on record?
Result: > 500 µM

Next:
Query: Can you look up the measured MIC95 of COc1ccc(C2=C(c3ccc4c(c3)OCO4)COC2=O)cc1 for me?
Result: > 500 µM

Query: Entry COc1ccc(C2=C(c3ccc(Br)cc3)C(=O)OC2)cc1 : reported MIC95 = ?
Result: > 1000 µM

###

Tested on: Pseudomonas aeruginosa
Assay: Antibacterial activity against Pseudomonas aeruginosa ATCC 9027 after 48 hrs by microdilution assay
Assay type: functional
Conditions: ATCC 9027, 48 h
Quick reference: MIC95 of the listed items.

Query: I am curious: what MIC95 value has been reported for O=C1OCC(c2ccc(C(F)(F)F)cc2)=C1c1ccc(Br)cc1 ?
Result: > 500 µM

***
Query: Endpoint output: MIC95 of Cc1ccc(C2=C(c3ccc(Br)cc3)C(=O)OC2)cc1 . Value?
Result: > 1000 µM

Query: # query: MIC95 of entry COc1ccc(C2=C(c3ccc4c(c3)OCO4)COC2=O)cc1
Result: > 500 µM

###

Test system: K562
Experiment: Induction of apoptosis in human K562 cells assessed as caspase 3/7 activity after 24 hrs by caspase-glo luminescent assay
Format: cell-based
Settings: K562, 24 h
// reported IC50 for each item listed

The examples below pair each entry with its known result.
Query: Look up IC50 for this compound: Cc1ccc(C2=C(c3ccc(Cl)c(Cl)c3)C(=O)OC2)cc1
Result: > 40 µM

Query: Fill in: IC50 of COc1ccc(C2=C(c3ccc(Br)cc3)C(=O)OC2)cc1 is ___
Result: > 40 µM

Query: Fill in the blank: the reported IC50 of O=C1OCC(c2ccc(Cl)cc2)=C1c1ccc(C(F)(F)F)cc1 is ____.
Result: > 40 µM

Others:
Query: Report IC50 for Cc1ccc(C2=C(c3ccc(Br)cc3)C(=O)OC2(CO)CO)cc1 please.
Result: > 40 µM

Query: Quick one: IC50 for O=C1OCC(c2ccc(C(F)(F)F)cc2)=C1c1ccncc1 ?
Result: > 40 µM

Query: What measured IC50 goes with Cc1ccc(C2=C(c3ccc(Br)cc3)C(=O)OC2CO)cc1 (stereo not drawn) ?
Result: 46.7 µM

Query: Query (compound): Cc1ccc(C2=C(c3ccc(F)cc3)C(=O)OC2)cc1 ; field requested: IC50
Result: 3.23 µM

Query: What does the data say about its IC50? Entry: CC[C@@]1(O)C(=O)OCc2c1cc1n(c2=O)Cc2cc3ccccc3nc2-1
Result: 0.711 µM

Query: Value lookup for IC50; key = COc1ccc(C2=C(c3ccc(OC)c(OC)c3)COC2=O)cc1
Result: > 40 µM

Query: What value of measured IC50 is listed for Cc1ccc(C2=C(c3cccc(C(F)(F)F)c3)C(=O)OC2)cc1 ?
Result: 0.31 µM

Query: Requested read-out: IC50. Entry: O=C1OCC(c2ccc(C(F)(F)F)cc2)=C1c1ccc(Br)cc1
Result: > 40 µM

Query: So what's the measured IC50 for this one? COc1ccc(C2=C(c3c(Cl)cccc3Cl)C(=O)OC2)cc1
Result: 16.2 µM

Query: Given the compound Cc1ccc(C2=C(c3ccc(Br)cc3)C(=O)OC2)cc1 , what is its reported IC50?
Result: 0.29 µM

Query: Which IC50 value is on record for COc1cc(OC)c(C2=C(c3ccc(OC)c(OC)c3OC)COC2=O)c(OC)c1 ?
Result: > 40 µM

Query: Look up IC50 for this compound: O=C1OC(CO)(CO)C(c2ccc(Br)cc2)=C1c1cccc(Cl)c1Cl
Result: > 40 µM

###

Tested on: HepG2
Assay: Cytotoxicity against human HepG2 cells assessed as reduction in cell viability after 48 hrs by ATPlite-based luminescent assay
Conditions: HepG2, 48 h
Quick list: IC50 per entry.
Value expressed in µM; do not type the unit.

Query: What does the data say about its IC50? Entry: O=C1OCC(c2ccc(C(F)(F)F)cc2)=C1c1ccc(Br)cc1
Result: 11.4

New cases:
Query: // lookup IC50 for CC[C@@]1(O)C(=O)OCc2c1cc1n(c2=O)Cc2cc3ccccc3nc2-1 [CAMPTOTHECIN]
Result: 0.43

###

Parameter MIC95: see the listing below.
Test system: Klebsiella pneumoniae
Assay: Antibacterial activity against Klebsiella pneumoniae HK11750/08 clinical isolate after 48 hrs by microdilution assay
Assay type: functional
Settings: HK11750/08, 48 h

Query: Reported MIC95 for COc1ccc(C2=C(c3ccc(OC)c(OC)c3)C(CO)OC2=O)cc1 (stereo not given) : what is it?
Result: > 125 µM

Query: Query (molecule): COc1ccc(C2=C(c3c(Cl)cccc3Cl)C(=O)OC2)cc1 ; field requested: MIC95
Result: > 500 µM

Query: Entry O=C1OCC(c2ccc3c(c2)OCO3)=C1c1ccc2c(c1)OCO2 : reported MIC95 = ?
Result: > 125 µM

Query: Requested field: MIC95. Item: O=C1OCC(c2ccccc2)=C1c1cccc(C(F)(F)F)c1
Result: > 500 µM

***
Query: Field request: MIC95 | item: O=C1OCC(c2ccc(O)c(O)c2)=C1c1ccc(O)cc1
Result: > 500 µM

Query: Given the entry COc1ccc(C2=C(c3cccc(Cl)c3Cl)C(=O)OC2(CO)CO)cc1 , report its measured MIC95.
Result: > 500 µM

Query: Please report the recorded MIC95 for O=C1OCC(c2ccc(C(F)(F)F)cc2)=C1c1ccncc1 .
Result: > 500 µM

Query: Could you share which MIC95 value was measured for Cc1ccc(C2=C(c3cccc(C(F)(F)F)c3)C(=O)OC2)cc1 ?
Result: > 500 µM

Query: Fill in: MIC95 of COc1ccc(C2=C(c3ccc(S(C)(=O)=O)cc3)COC2=O)cc1 is ___
Result: > 500 µM

Query: // lookup MIC95 for COc1ccc(C2=C(c3ccc4c(c3)OCO4)COC2=O)cc1
Result: > 500 µM

Query: Record request: MIC95 value, item Cc1ccc(C2=C(c3ccc(F)cc3)C(=O)OC2)cc1
Result: > 500 µM

Query: What does the record list as MIC95 for O=C1OCC(c2ccc(C(F)(F)F)cc2)=C1c1c[nH]c2ccccc12 ?
Result: > 125 µM

Query: # get_value(readout='MIC95', item= Cc1ccc(C2=C(c3ccc(Br)cc3)C(=O)OC2CO)cc1 (stereo not given) )
Result: > 500 µM

Query: Bench note: what MIC95 did O=C1OC(CO)(CO)C(c2ccc(Br)cc2)=C1c1cccc(Cl)c1Cl show?
Result: > 500 µM

Query: For the molecule shown here, COc1ccc(C2=C(c3ccc(OC)c(OC)c3)COC2=O)cc1 , give the reported MIC95.
Result: > 125 µM

Query: Return reported MIC95; argument: O=C1OCC(c2ccccc2)=C1c1ccc(Br)cc1
Result: > 1000 µM

Query: What value of MIC95 has been reported for the following molecule? Cc1ccc(C2=C(c3ccc(Br)cc3)C(=O)OC2(CO)CO)cc1
Result: > 500 µM

Query: Returns the measured MIC95 for the input molecule. Input: COc1cc(OC)c(C2=C(c3ccc(OC)c(OC)c3OC)COC2=O)c(OC)c1
Result: > 500 µM

Query: Recorded MIC95 of Cc1ccc(C2=C(c3cccc(Cl)c3)C(=O)OC2)cc1 , please.
Result: > 500 µM

Query: MIC95; subject: Cc1ccc(C2=C(c3ccc(Br)cc3)C(=O)OC2)cc1
Result: > 1000 µM

Query: Recorded MIC95 for CC(=O)OCC1(COC(C)=O)OC(=O)C(c2ccc(Br)cc2)=C1c1ccc(C)cc1 , please?
Result: > 125 µM

Query: What measured MIC95 goes with COc1ccc(C2=C(c3ccc(OC)c(OC)c3)C(CO)(CO)OC2=O)cc1 ?
Result: > 500 µM

Query: Any idea what MIC95 was measured for O=C1OCC(c2ccc(C(F)(F)F)cc2)=C1c1ccc(Br)cc1 ?
Result: > 500 µM

Query: Quick one: MIC95 of COc1ccc(C2=C(c3ccc(Br)cc3)C(=O)OC2)cc1 ?
Result: > 1000 µM

Query: Report MIC95 for O=C1OCC(c2ccccc2)=C1c1ccc(F)cc1 please.
Result: > 500 µM
